Collected pEC50 values appear next to each entry.
- SYSTEM UNDER TEST: T1, ARG2 (Homo sapiens, UniProt P78540)
- T1 sequence (P78540 23-354): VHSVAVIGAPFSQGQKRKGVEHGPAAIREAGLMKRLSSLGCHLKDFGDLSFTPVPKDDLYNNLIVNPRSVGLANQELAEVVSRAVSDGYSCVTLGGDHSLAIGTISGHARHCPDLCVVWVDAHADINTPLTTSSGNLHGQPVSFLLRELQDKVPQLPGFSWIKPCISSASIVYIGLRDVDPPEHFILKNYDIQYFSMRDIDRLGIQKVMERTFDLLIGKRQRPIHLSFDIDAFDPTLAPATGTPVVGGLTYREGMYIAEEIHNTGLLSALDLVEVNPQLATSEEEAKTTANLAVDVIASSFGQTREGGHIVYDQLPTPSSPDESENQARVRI
- ASSAY PROTOCOL: T cell proliferation assay (BrdU, 96 hours) with exogenous ARG2, improved variant IgGs
- Type: cell-based
- APPLIED CONDITIONS: In Absence of rhARG2; 96 hours; hIgG1
pEC50: −log10 of the molar value.

>  <MOLECULE>
C0021092: anti-ARG2 antibody, VH SEQ ID NO: 92, VL SEQ ID NO: 97 (antibody, listed as Homo sapiens, V domains shown, C0021092) VH: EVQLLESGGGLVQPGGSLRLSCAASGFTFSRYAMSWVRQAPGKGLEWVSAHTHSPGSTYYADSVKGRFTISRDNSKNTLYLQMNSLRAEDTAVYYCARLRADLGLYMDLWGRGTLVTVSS VL: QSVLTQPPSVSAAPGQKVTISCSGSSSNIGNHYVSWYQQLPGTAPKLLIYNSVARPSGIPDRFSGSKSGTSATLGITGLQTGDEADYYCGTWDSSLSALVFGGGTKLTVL

>  <pEC50>
> 9.05

$$$$
>  <MOLECULE>
C0021139: anti-ARG2 antibody, VH SEQ ID NO: 212, VL SEQ ID NO: 217 (antibody, listed as Homo sapiens, V domains shown, C0021139) VH: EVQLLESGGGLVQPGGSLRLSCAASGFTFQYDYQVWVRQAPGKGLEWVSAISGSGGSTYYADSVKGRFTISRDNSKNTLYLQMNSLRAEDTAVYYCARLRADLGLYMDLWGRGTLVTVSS VL: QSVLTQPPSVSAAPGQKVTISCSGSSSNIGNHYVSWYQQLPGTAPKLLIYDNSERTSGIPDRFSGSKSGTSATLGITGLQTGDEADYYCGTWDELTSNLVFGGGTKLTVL

>  <pEC50>
> 9.00

$$$$
>  <MOLECULE>
C0021065: anti-ARG2 antibody, VH SEQ ID NO: 72, VL SEQ ID NO: 77 (antibody, listed as Homo sapiens, V domains shown, C0021065) VH: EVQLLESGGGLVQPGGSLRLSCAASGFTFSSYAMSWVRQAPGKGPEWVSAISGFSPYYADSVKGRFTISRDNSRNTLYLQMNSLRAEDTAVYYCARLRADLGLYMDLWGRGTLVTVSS VL: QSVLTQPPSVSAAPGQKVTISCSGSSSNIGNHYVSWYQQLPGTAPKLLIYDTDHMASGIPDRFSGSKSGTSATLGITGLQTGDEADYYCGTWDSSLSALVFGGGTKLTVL

>  <pEC50>
> 9.05

$$$$
